Molecular target: MYC (Homo sapiens, UniProt P01106)
Sequence (P01106 368-454 limits assumed): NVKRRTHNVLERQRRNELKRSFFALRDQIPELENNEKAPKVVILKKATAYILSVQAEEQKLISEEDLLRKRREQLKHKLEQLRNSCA
parameterMeasured: Kd

[[record]]
compound = "CCN(CC)CC[n+]1ccc2c(C)c3[nH]c4ccccc4c3c(C)c2c1"
parametermeasured = "Kd"
measured = "~4 µM"


Where do the numbers come from? From paper PMC9980915.
